Hello, the source for this data is PubChem BioAssay, in case you need it.

Test: inhibitors of PAF-induced NF-kB signaling, retest, confirmation, cell-based, GFP fluorescence, single concentration (AID 602472);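 also: stimulus PAF is a Pseudomonas aeruginosa filtrate and not platelet activating factor; plate controls were DMSO wells with stimulus for no effect and unstimulated DMSO wells for full effect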
Conditions: KKLEB CF airway cells, overnight, at 5 µM
This is one part of the list. Active and inactive are the calls of the source. Rule as the data show it: active = inhibition above about 40%; inactive = the rest.
Tick one outcome: label 1 = active, label 0 = inactive

Past entries and their recorded results:
# CHEMICAL_SMILES, CLASS_NAME
rows = [
    ("OCCNc1nc(Nc2ccc(Cl)c(Cl)c2)nc2ccccc12", "label 1"),
    ("CC1(C)CCSC(/C=C/c2ccccc2)=N1", "label 0"),
]

Next up:
Enquiry: Recorded call for "CCc1ccc(N(CC)c2ncnc3nc[nH]c23)cc1" ?
Return: label 1

----------
Assay: caspase-8 TRAIL sensitization, hit retest, confirmation, cell-based, NB7+caspase-8, with/without TRAIL, luminescence panel (AID 651596)
Conditions: NB7 neuroblastoma + caspase-8, without TRAIL, luminescence viability, without TRAIL, mean of runs, at 10 µM
Please note: activity exactly at 60% is NO. Only values below 60% get YES.

# count of solved cases: 8
# COMPOUND, CLASS_NAME
rows = [
    ("C=C1CC2(CC(c3ccccc3)OC(c3ccccc3)C2)OC1=O (stereo not drawn)", "NO"),
    ("Cc1ccc2nc(-c3ccc(NC(=O)CCN4C(=O)c5ccccc5C4=O)cc3)sc2c1", "NO"),
    ("CC1(C)N=C(N)N=C(N)N1c1ccc(OCCCOc2ccccc2)c(Cl)c1", "NO"),
    ("CCOc1ccc2cc(C#N)c(SCC(=O)OC)nc2c1", "YES"),
    ("COc1ccc(-c2cn3ccsc3n2)cc1", "YES"),
    ("Cc1cc(Br)ccc1OCCCCNCCO", "YES"),
    ("O=C(OCc1cc(=O)oc2cc(O)ccc12)c1cc(S(=O)(=O)N2CCOCC2)ccc1F", "NO"),
    ("O=C(CC(O)(C(F)(F)F)C(F)(F)F)Nc1ccc(Cl)c(Cl)c1", "NO"),
]

Enquiry: Strictly below 60% in activity? "Cc1cccc(Nc2nc(N)nc(CCl)n2)c1C"
Return: NO

Enquiry: Does "CN1CCN(CCCNC(=O)c2ccc(/C=C3\Oc4ccccc4N(Cc4ccc(Cl)cc4)C3=O)cc2)CC1" have activity strictly under 60%?
Return: NO

----------
Target: PEG-3 (UniProt Q6IN02)
Sequence (Q6IN02 whole entry, looked up): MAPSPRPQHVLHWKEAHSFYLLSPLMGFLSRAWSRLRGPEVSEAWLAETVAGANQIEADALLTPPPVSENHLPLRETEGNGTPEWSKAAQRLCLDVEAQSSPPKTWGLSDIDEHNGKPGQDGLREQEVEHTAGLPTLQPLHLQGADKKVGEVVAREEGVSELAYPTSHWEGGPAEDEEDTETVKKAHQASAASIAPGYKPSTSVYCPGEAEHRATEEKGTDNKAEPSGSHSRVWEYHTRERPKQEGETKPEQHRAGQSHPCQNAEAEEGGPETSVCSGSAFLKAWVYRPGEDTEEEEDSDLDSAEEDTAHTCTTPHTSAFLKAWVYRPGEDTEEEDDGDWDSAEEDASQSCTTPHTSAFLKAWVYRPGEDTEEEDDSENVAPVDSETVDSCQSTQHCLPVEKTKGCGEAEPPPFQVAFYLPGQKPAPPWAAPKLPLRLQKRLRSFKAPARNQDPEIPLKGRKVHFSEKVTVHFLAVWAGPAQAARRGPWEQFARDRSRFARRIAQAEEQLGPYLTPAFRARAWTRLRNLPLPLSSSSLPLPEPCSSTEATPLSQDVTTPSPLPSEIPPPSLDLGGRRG
Experiment: Peg3 promoter luciferase inhibitors, potency, dose response, cell-based, HeLa, CREF/GAPDH counter-screen panel (AID 624167)
Details: CREF/GAPDH counter-screens; HeLa PEG-Prom luciferase reporter, overnight, run 2, dose range 1, at 100 µM (top of the series) unless noted
# inhibition per record follows
Number only, in %; omit the unit.

Here's what some known entries look like.
# COMPOUND, inhibition [%]
data = [
    ("O=C(NC(c1ccc(F)cc1)c1ccc2ccccc2n1)C1CCN(Cc2cccc(C(F)(F)F)c2)CC1 (stereo not drawn)", 94.1),
    ("COc1ccc2c(c1)c(=Cc1ccc(N(C)C)cc1)c1cc(-c3ccccc3)[n+](C)n12", 102),
    ("O=[N+]([O-])c1ccc(-c2ccc(/C=N/Nc3nc(NCc4ccccc4)nc(N4CCOCC4)n3)o2)cc1", 91.5),
    ("Oc1cccc(C(Nc2nccs2)c2ccc3cccnc3c2O)c1 (stereo not drawn)", 98.7),
    ("CCOC(=O)/C(=C\\c1ccccc1)C(=O)CCN1CCOCC1", 102),
    ("C/C(=N\\NC(=O)c1c(C)nc2ccccn12)c1ccc(O)cc1O", 48.1),
    ("COc1ccc(-n2cc(CNC3CCN(C)CC3)c(-c3cccc(F)c3)n2)cc1", 101),
    ("CC(C)(C)c1ccc(Oc2ccc(N)cc2)cc1", 99.2),
]

Enquiry: Give inhibition for "CN(C(=O)OC(C)(C)C)c1ccc(-c2nc3ccccc3s2)cc1"
Return: 98.2

Enquiry: Give recorded inhibition. "Cc1ccc(S(=O)(=O)CCSC(=N)N)cc1"
Return: 93.6

----------
Experiment: luciferase luminescence interference by compounds, confirmation, artefact control for SENP inhibitor project, biochemical, single concentration, SENP8 reaction pre-completed (AID 488919);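 also: plate controls were DMSO wells with completed reaction for no effect and substrate without enzyme for full effect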
Details: Pre-incubated SENP8/Z-RLRGG-aminoluciferin, at 12.5 µM, stronger effect = higher value
Some of the results follow.
Give 1.0 when the value for inhibition is at least 20%. Give 0.0 when it is less.

Enquiry: Entry "COc1ccc(-c2nc(-c3ccccc3)no2)c(OC)c1" : is its inhibition no less than 20%?
Return: 1.0

Enquiry: Given "COc1cc(SC)ccc1C(=O)Nc1cc(C)ccn1" , state whether its inhibition is at least 20%.
Return: 1.0

----------
Reported values of activity for individual entries
Assay: caspase-8 TRAIL sensitization, hit retest, confirmation, cell-based, NB7+caspase-8, with/without TRAIL, luminescence panel (AID 651596)
Details: NB7 neuroblastoma + caspase-8, without TRAIL, luminescence viability, without TRAIL, mean of runs, at 10 µM
Dear colleague, please return just the value in %, with no unit written.

Look over these answered cases.
# COMPOUND, UNIT_NAME, REPORTED_VALUE
records = [
    ("Oc1ccc(-c2cn3ccccc3n2)cc1", "%", 45.5),
    ("O=C(CCl)N(Cc1ccccc1)c1ccccc1", "%", 98.9),
    ("COc1ccc(-c2cc3cccc(OC)c3oc2=O)cc1", "%", 80.2),
    ("Cc1nc(N)nc(N)c1CCCc1ccc(Cl)c(Cl)c1", "%", 74.8),
    ("CC(/C=N/NC(=O)c1ccco1)=C\\c1ccccc1", "%", 71.2),
]

Enquiry: Quick one: give measured activity for "C=CCn1c(C)cc(C2=NNC(=NCC)SC2)c1C"
Return: 90.7

Enquiry: Note activity for the compound shown: CC1C(=O)NN=C1C(=O)N/N=C\C(Br)=C\c1ccccc1 (configuration not stated)
Return: 73.8

Enquiry: Please supply the value of reported activity for the item "CCCCc1ccc(NC(=O)c2ccc(N(C)S(C)(=O)=O)cc2)cc1"
Return: 19.9

Enquiry: Give me measured activity, please, for this compound: COc1ccccc1NC(CC(=O)c1ccccc1)C(=O)OCC(=O)c1ccc(C)c(C)c1 (configuration not stated)
Return: 66.2

Enquiry: Note down activity recorded for COc1cc(C2Nc3ccccc3C(=O)N2c2ccc3c(c2)OCCO3)ccc1OCC(C)C (configuration not stated)
Return: 63.5

----------
Test: caspase-8 TRAIL sensitization, hit retest, confirmation, cell-based, NB7+caspase-8, with/without TRAIL, luminescence panel (AID 651596)
Settings: NB7 neuroblastoma + caspase-8, without TRAIL, luminescence viability, without TRAIL, mean of runs, at 10 µM
Hi! Could you tag entries with activity below 80% as 1.0, and those at or above as 0.0? Much appreciated.

Examples from the recorded data:
# MOLECULE, CLASS_NAME
measured = [
    ("O=C(Nc1ccncc1)c1ccc(-c2ccccc2)cc1", 1.0),
    ("Cc1cc(C)c2c(c1)/C(=C/C(=O)c1ccc(Br)s1)C(=O)N2", 0.0),
    ("O=C(Nc1nc2ccccc2[nH]1)c1ccc(Cl)cc1", 0.0),
    ("C/C(=N\\NC(=O)c1ccccc1NC(=O)c1ccc(Cl)cc1)c1ccncc1", 0.0),
    ("Cc1nc(-c2ccc(C(=O)Nc3ccccc3F)cc2)cs1", 0.0),
]

Enquiry: Lab note: activity threshold 80%. Does this molecule come in strictly under it? "CCC(=O)Nc1cc2nn(-c3ccc(OC)cc3)nc2cc1C"
Return: 1.0

Enquiry: Determine if "O=c1cc(-c2ccccc2)nc2cc(-c3ccc(F)cc3)[nH]n12" shows activity strictly lower than 80%.
Return: 1.0

Enquiry: Input "O=C(/C=C/c1ccccc1)Nc1ccc2c(c1)C(=O)NC2=O" ; condition: activity strictly below 80%. Does it hold?
Return: 1.0

Enquiry: # check: activity < 80% for "C/C(=N\NC(=O)c1ccn(C)n1)c1cccc(NC(=O)c2ccc(C)s2)c1"
Return: 1.0

----------
Test: inhibition of Brca1/Bard1 split-luciferase complementation, confirmation, counter-screen for Mdm2/MdmX interaction inhibitor project, luminescence, single concentration (AID 504668)
Details: Brca1/Bard1 bimolecular luciferase complementation counterscreen, at 8 µM, stronger effect = higher value
inhibition values for the compounds below.
State the answer as a number, implicitly in %.

These solved cases illustrate the format of a correct answer.
# COMPOUND, ENDPOINT, REPORTED_VALUE
records = [
    ("O=C(CSc1ccccn1)Nc1nonc1[N+](=O)[O-]", "inhibition", 29.3),
    ("COc1ccc(-n2nc(C(=O)c3cccs3)cc(-c3nc4ccccc4[nH]3)c2=N)cc1", "inhibition", 30.8),
    ("COc1ccc(/C=C2\\CCC/C(=C\\C=N\\N(C)C)C2=O)cc1", "inhibition", 29.2),
    ("CC(=O)c1ccc(Sc2nnnn2-c2ccccc2)c([N+](=O)[O-])c1", "inhibition", 30.1),
]

Enquiry: For the compound "CCOC(=O)c1cccc2c1-c1ccccc1/C2=N/O" , give its measured inhibition value.
Return: 30.6

Enquiry: Determine its reported inhibition: "Cc1nc(-n2[nH]c3c(c2=O)CCCC3)[nH]c(=O)c1Cc1ccccc1"
Return: 30.8

Enquiry: Return value of inhibition for input "O=C(Oc1ccnc2cc(Cl)ccc12)N1CCCCCC1" , no commentary.
Return: 30

Enquiry: Name the recorded inhibition of the compound listed here: "COc1cc(/C=C/c2ccc3cccc(O)c3n2)c(Br)cc1O"
Return: 29.2

Enquiry: State its inhibition for this compound: CCc1ccc2c(c1)C1(NN=C(c3cccc4ccccc34)S1)C(=O)N2 (configuration not stated)
Return: 30

Enquiry: Return inhibition for the following compound: "COc1ccc(/C=C2/SC(=S)N(CCCC(=O)Nc3ccc(O)cc3)C2=O)cc1OC"
Return: 29.9

Enquiry: Return reported inhibition. Input compound: CCOC(=O)Nc1ccc2c(c1)N(C(=O)CCN(CC)CC)c1ccccc1S2=O (configuration not stated)
Return: 29.9

Enquiry: Tell me measured inhibition for CCC(C)Nc1nc(-c2ccccn2)nc2ccccc12 (configuration not stated) please.
Return: 29.2
